B1: LINE1-full (parent)
chain: UACGUAGGUGGUUUUCCCCUGAUAGUGCUAAGGGGGCCUGGAAGUUUGGACUGGGCAGAGCUCAACACAGCGUGGCAAAGUGGCUGUGGCUAGACUGCCUCUCUGGAUUCCUCGUCACUCAGCAGGGCAUCUCUGAGAGAAAUGCC

- Variants of: B1
- protocol: self-cleavage, relative activity (ratio to wild type); higher = more cleavage; in vitro, sequencing; the parent is a self-cleaving ribozyme
Label n if self-cleavage falls below 1; label y in every other case.

Recorded results for 2 variants are shown here.
INSERT INTO results (change, label) VALUES
  ('G125A A129U', 'n'),
  ('U85A A117U', 'n');

### Prompt Is self-cleavage at least 1? Consider U29A U108C
### Response y

### Prompt self-cleavage >= 1 for U47C G125U ?
### Response y

### Prompt Test whether the variant U23A U39A records self-cleavage of 1 or higher.
### Response y

### Prompt Reported self-cleavage reaches at least 1 for U104A A140G ?
### Response n

### Prompt Tell me whether self-cleavage is at least 1 here: C51A A140G
### Response y

### Prompt Could you please find out whether U20C A78U has self-cleavage that meets 1 or exceeds it?
### Response y

### Prompt In plain terms: is recorded self-cleavage at least 1 for C118U A121G ?
### Response y

### Prompt Does self-cleavage meet or surpass 1 for U62A G82A ?
### Response n

### Prompt Is self-cleavage for U109A U119C at or above 1?
### Response y

### Prompt Test whether the variant A30G U81C records self-cleavage of 1 or higher.
### Response y
